- System: SKMEL-5 melanoma
- experiment.notes: MTT cytotoxicity assay, SKMEL-5
- reported.conditions: Homo sapiens, SK-MEL-5, […], read-out: Cytotoxicity ED50, SKMEL-5
pIC50: −log10 of the molar value.
property.measured: pIC50

Worked set:
{"compound": "COc1cc(/C=C/c2ccc(N)cc2)cc(OC)c1OC", "property.measured": "pIC50", "observed": "< 4.60"}
{"compound": "COc1cc(CCc2ccncc2)cc(OC)c1OC", "property.measured": "pIC50", "observed": "< 4.60"}
{"compound": "CCCOc1ccc(/C=C/c2cc(OC)c(OC)c(OC)c2)cc1 [16b]", "property.measured": "pIC50", "observed": "< 4.60"}

Annotate the compound COc1ccc(/C=C\c2ccc(OC)c(OC)c2)cc1 [15h] with its measured pIC50.
< 4.60

Annotate the compound COc1ccc(NC(=O)c2cc(OC)c(OC)c(OC)c2)cc1 [11a] with its measured pIC50.
< 4.60

Annotate the compound COC(=O)C(Cc1cc(OC)c(OC)c(OC)c1)c1ccc(OC)cc1 (centres unmarked) [compound 17j] with its measured pIC50.
< 4.60

Annotate the compound COc1cc(/C=C/c2ccc(OC)c(OC)c2)cc(OC)c1 with its measured pIC50.
< 4.60

Annotate the compound COc1cc(/C=C/c2ccc([N+](=O)[O-])cc2)cc(OC)c1OC with its measured pIC50.
< 4.60

====

- Test system: SKMEL-5 melanoma
- experiment.notes: MTT cytotoxicity assay, SKMEL-5
- reported.conditions: Homo sapiens, SK-MEL-5, […], read-out: Cytotoxicity ED50, SKMEL-5
The following compounds are shown together with reported pIC50 values.
In simple prose, pIC50 is minus the logarithm base ten of a concentration in moles per litre.

Annotate the compound COc1ccc(CCc2cc(OC)c(OC)c(OC)c2)cc1O [compound 1c, reference compound] with its measured pIC50.
8.68

====

- System: SF-295 CNS cancer
- experiment.notes: Cytotoxicity, SF-295
- reported.conditions: read-out: cytotoxicity GI50, SF-295; 50% growth inhibition; average of two determinations; 8640 min
The following molecules are shown together with reported GI50 values.

Worked set:
{"molecule": "CCc1ccc(N=Cc2cc(OC)c(OC)c(OC)c2)cc1 [108b]", "measurement.target": "SF-295 CNS cancer", "GI50": "> 100 µM"}
{"molecule": "COc1cc(C=Nc2ccc(C(C)C)cc2)cc(OC)c1OC [108f]", "measurement.target": "SF-295 CNS cancer", "GI50": "> 100 µM"}

Consider the additional molecule presented here.
Annotate the molecule CCCc1ccc(N=Cc2cc(OC)c(OC)c(OC)c2)cc1 [108g] with its measured GI50.
> 100 µM

====

- Tested on: MCF-7 breast carcinoma
- experiment.notes: MTT cytotoxicity assay, MCF-7
- reported.conditions: Homo sapiens, MCF7, […], read-out: Cytotoxicity ED50, MCF-7
property.measured: IC50

Worked set:
{"compound": "COc1cc(/C=C/c2ccc(N)cc2)cc(OC)c1OC", "IC50": "> 25 µM"}
{"compound": "COc1cc(/C=C/c2ccc(C(C)(C)C)cc2)cc(OC)c1OC [16g]", "IC50": "> 25 µM"}

Consider the additional compound presented here.
Annotate the compound COc1ccc(CCc2ccccc2)c(OC)c1OC with its measured IC50.
> 25 µM
